Biological target: angiotensin II receptor subtype 1 (AT1) (Oryctolagus cuniculus, UniProt P34976)
Construct: from adrenal glands in rabbits; from tissue; host or cells: rabbit adrenal glands
Sequence (P34976 1-359): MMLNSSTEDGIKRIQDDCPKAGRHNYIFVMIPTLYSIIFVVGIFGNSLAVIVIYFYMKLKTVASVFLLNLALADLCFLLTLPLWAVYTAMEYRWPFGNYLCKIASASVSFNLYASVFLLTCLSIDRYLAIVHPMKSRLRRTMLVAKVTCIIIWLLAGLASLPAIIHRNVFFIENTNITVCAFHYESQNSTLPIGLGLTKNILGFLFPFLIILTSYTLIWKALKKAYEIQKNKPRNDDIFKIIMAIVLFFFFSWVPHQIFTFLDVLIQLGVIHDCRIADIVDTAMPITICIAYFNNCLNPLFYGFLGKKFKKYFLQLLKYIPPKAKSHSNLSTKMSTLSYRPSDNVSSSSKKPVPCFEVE
Assay: Binding to angiotensin II receptor subtype 1 (AT1)
Design: species or system rabbits (adrenal glands)
Details: 100 μM; 3H-angiotensin II tracer
parameter_measured: inhibition at 100 µM
# do not omit the unit; it follows the number

These solved cases illustrate the format of a correct answer.
cpd_smiles: CCCCC(=O)Nc1c(NCc2ccccc2)ncnc1NCc1ccc(C(=O)O)cc1
parameter_measured: inhibition at 100 µM
reported: 1%
//
cpd_smiles: CCCCC(=O)Nc1c(Cl)ncnc1NCc1ccc(OC)cc1
parameter_measured: inhibition at 100 µM
reported: 0%
//
cpd_smiles: CCCCC(=O)Nc1c(Cl)ncnc1NCc1ccc(C(=O)OC)cc1
parameter_measured: inhibition at 100 µM
reported: 11%

Dear colleague, I am looking for the recorded inhibition at 100 µM of the following molecule: CCCCC(=O)Nc1c(NCCc2ccccc2)ncnc1NCc1ccc(OC)cc1
20%

Dear colleague, I am looking for the recorded inhibition at 100 µM of the following molecule: CCCCC(=O)Nc1c(NCCCc2ccccc2)ncnc1NCc1ccc(C(=O)O)cc1
6%

Dear colleague, I am looking for the recorded inhibition at 100 µM of the following molecule: CCCCC(=O)Nc1c(NCc2ccccc2)ncnc1NCc1ccc(OC)cc1
11%

Dear colleague, I am looking for the recorded inhibition at 100 µM of the following molecule: CCCCC(=O)Nc1c(NCc2ccc(C(=O)O)cc2)ncnc1N(C)Cc1ccccc1
42%

Dear colleague, I am looking for the recorded inhibition at 100 µM of the following molecule: CCCCC(=O)Nc1c(NCc2ccc(OC)cc2)ncnc1NCc1ccc(C(=O)O)cc1
6%

Dear colleague, I am looking for the recorded inhibition at 100 µM of the following molecule: CCCCC(=O)Nc1c(NCCc2ccccc2)ncnc1NCc1ccc(C(=O)O)cc1
0%

----------
Target: angiotensin II receptor subtype 1 (AT1) (Oryctolagus cuniculus, UniProt P34976)
Construct: from adrenal glands in rabbits; from tissue; host or cells: rabbit adrenal glands
Sequence (P34976 1-359): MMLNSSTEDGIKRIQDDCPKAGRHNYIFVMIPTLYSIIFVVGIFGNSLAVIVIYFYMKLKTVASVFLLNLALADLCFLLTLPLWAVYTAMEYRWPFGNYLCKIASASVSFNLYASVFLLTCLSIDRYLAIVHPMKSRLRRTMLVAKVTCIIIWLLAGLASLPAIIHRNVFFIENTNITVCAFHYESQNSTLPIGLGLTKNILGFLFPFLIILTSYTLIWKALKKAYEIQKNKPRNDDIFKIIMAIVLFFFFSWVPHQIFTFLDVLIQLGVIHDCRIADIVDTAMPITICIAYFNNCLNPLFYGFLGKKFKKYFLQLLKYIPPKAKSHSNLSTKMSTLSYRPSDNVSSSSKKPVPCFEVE
Test: Binding to angiotensin II receptor subtype 1 (AT1)
Parameters: species or system rabbits (adrenal glands)
Conditions: 3H-angiotensin II tracer; room temperature, 3 hours
Protocol: In this Example, the affinity to the angiotensin II receptor subtype 1 or subtype 2 was evaluated by a binding assay in accordance with the method described in Biochem. Pharmacol., 33, 4057-4062 (1984). Specifically, the measurement of the total binding in the presence of each drug was performed as follows: […]
Reported pIC50 by item:
Schema: pIC50 number; meaning minus log10 of the concentration expressed in molar units.

compound: CCCCC(=O)Nc1c(NCc2ccc(C(=O)O)cc2)ncnc1OC [compound 2]
measured_on: angiotensin II receptor subtype 1 (AT1) (Oryctolagus cuniculus, UniProt P34976)
parameter_measured: pIC50
reported: 4.55

API: the following record is the query input.
Param readout= pIC50; system= angiotensin II receptor subtype 1 (AT1) (Oryctolagus cuniculus, UniProt P34976); entry= CCCCC(=O)Nc1c(NCc2ccc(C(=O)O)cc2)ncnc1OCc1ccccc1 [Compound No. 11] ; returns value.
4.82
